Molecular target: T1, human 5T4-His protein (human, UniProt Q13641 32-355)
T1 construct: also called recombinant 5T4 protein (human 5T4-his tag); human 5T4 protein; not shown: His tag
T1 sequence (looked up): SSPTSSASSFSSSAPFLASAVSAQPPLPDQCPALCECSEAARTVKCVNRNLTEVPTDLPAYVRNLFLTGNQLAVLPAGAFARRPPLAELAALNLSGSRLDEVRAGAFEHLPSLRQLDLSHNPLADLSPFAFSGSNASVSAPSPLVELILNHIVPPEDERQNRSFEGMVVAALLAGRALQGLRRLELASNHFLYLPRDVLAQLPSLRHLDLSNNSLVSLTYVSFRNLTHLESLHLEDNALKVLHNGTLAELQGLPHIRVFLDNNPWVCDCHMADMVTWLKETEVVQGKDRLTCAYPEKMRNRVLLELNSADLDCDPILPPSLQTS
Experiment: ELISA, coated 5T4-His
quantity_name: EC50 (µg/mL)
Hi! Could you send only the number? It should be in µg/mL, unit omitted.

Worked set:
binder	readout_unit	EC50
Hu14G12-39 (antibody, V domains shown, humanized) VH: QVQLVQSGAEVKKPGASVKVSCKASGYAFSSSWMNWVRQAPGQRLEWMGRIYREDGHTNYNGKFKGRVTITADKSATTAYMELSSLRSEDTAVYYCANGGAMDYWGQGTLVTVSS VL: DIQMTQSPSSLSASVGDRVTITCRASQDISNYLNWYQQKPGKAPKLLIYYTSRLHSGVPSRFSGSGSGTDYTLTISSLQPEDIATYFCQQDNTLPWTFGGGTKVEIK	µg/mL	0.0069
Hu14G12-47 (antibody, V domains shown, humanized) VH: QVQLVQSGAEVKKPGASVKVSCKASGYAFSSSWMNWVRQAPGQGLEWMGRIYREDGHTNYNGKFKGRVTMTADKSTTTAYMELRSLRSDDTAVYYCANGGAMDYWGQGTLVTVSS VL: DIQMTQSPSTLSASVGDRVTITCRASQDISNYLNWYQQKPGKAPKLLIYYTSRLHSGVPSRFSGSGSGTEYTLTISSLQPDDIATYFCQQDNTLPWTFGGGTKVEIK	µg/mL	0.014
Hu14G12-22 (antibody, V domains shown, humanized) VH: QVQLVQSGAEVKKPGSSVKVSCKASGGTFSSSWMNWVKQAPGQGLEWIGRIYREDGHTNYNGKFKGRATITADKSTSTAYMELSSLRSEDTAVYFCANGGAMDYWGQGTTVTVSS VL: DIQMTQSPSSLSASVGDRVTITCRASQDISNYLNWYQQKPGKVPKLLIYYTSRLHSGVPSRFSGSGSGTDYTLTISSLQPEDVATYFCQQDNTLPWTFGGGTKLEIK	µg/mL	0.45
Hu14G12-17 (antibody, V domains shown, humanized) VH: QVQLVQSGAEVKKPGSSVKVSCKASGGTFSSSWMNWVKQAPGQGLEWIGRIYREDGHTNYNGKFKGKATLTADKSTSTAYMELSSLRSEDTAVYFCANGGAMDYWGQGTTVTVSS VL: DIQMTQSPSSLSASVGDRVTITCRASQDISNYLNWYQQKPGKVPKLLIYYTSRLHSGVPSRFSGSGSGTDFTLTISSLQPEDVATYYCQQDNTLPWTFGGGTKLEIK	µg/mL	0.52
Hu14G12-44 (antibody, V domains shown, humanized) VH: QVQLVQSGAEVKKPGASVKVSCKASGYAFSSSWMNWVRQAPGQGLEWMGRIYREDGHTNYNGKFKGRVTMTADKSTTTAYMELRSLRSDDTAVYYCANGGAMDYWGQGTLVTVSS VL: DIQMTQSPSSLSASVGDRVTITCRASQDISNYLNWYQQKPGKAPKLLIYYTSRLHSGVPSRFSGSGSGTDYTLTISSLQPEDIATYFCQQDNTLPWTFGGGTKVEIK	µg/mL	0.0075
Hu14G12-8 (antibody, V domains shown, humanized) VH: EVQLVQSGAEVKKPGATVKISCKVSGYAFSSSWMNWVQQAPGKGLEWIGRIYREDGHTNYNGKFKGRVTITADTSTDTAYMELSSLRSEDTAVYFCANGGAMDYWGQGTLVTVSS VL: DIQMTQSPSSLSASVGDRVTISCRASQDISNYLNWYQQKPGKTVKLLIYYTSRLHSGVPSRFSGSGSGTDYTFTISSLQPEDIATYFCQQDNTLPWTFGGGTKLEIK	µg/mL	0.015

Annotate the binder Hu14G12-43 (antibody, V domains shown, humanized) VH: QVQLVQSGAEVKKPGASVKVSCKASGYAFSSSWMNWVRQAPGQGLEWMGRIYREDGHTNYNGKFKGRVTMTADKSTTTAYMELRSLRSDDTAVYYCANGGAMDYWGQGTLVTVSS VL: DIQMTQSPSSLSASVGDRVTITCRASQDISNYLNWYQQKPGKAPKLLIYYTSRLHSGVPSRFSGSGSGTDYTFTISSLQPEDIATYFCQQDNTLPWTFGGGTKVEIK with its measured EC50. 0.0064

Annotate the binder Hu14G12-16 (antibody, V domains shown, humanized) VH: EVQLVQSGAEVKKPGATVKISCKASGYAFSSSWMNWVKQAPGKGLEWIGRIYREDGHTNYNGKFKGRATITADTSTTTAYMELSSLRSEDSAVYFCANGGAMDYWGQGTLVTVSS VL: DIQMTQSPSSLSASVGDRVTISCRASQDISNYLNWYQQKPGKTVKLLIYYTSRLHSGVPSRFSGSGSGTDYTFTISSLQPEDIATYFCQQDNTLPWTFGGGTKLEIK with its measured EC50. 0.017

Annotate the binder Hu14G12-28 (antibody, V domains shown, humanized; also called parental Hu14G12-28 antibody) VH: QVQLVQSGAEVKKPGASVKVSCKASGYAFSSSWMNWVRQAPGQGLEWMGRIYREDGHTNYNGKFKGRVTMTADKSITTAYMELSRLRSDDTAVYYCANGGAMDYWGQGTLVTVSS VL: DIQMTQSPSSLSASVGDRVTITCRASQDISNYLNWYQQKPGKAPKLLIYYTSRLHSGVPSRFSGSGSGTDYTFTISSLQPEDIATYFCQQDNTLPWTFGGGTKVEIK with its measured EC50. 0.01

Annotate the binder Hu14G12-3 (antibody, V domains shown, humanized) VH: EVQLVQSGAEVKKPGATVKISCKVSGYAFSSSWMNWVQQAPGKGLEWMGRIYREDGHTNYNGKFKGRVTITADTSTDTAYMELSSLRSEDTAVYYCATGGAMDYWGQGTLVTVSS VL: DIQMTQSPSSLSASVGDRVTISCRASQDISNYLNWYQQKPGKAVKLLIYYTSRLHSGVPSRFSGSGSGTDFTFTISSLQPEDIATYFCQQDNTLPWTFGGGTKLEIK with its measured EC50. 0.026
